Molecular target: Fyn (UniProt P06241)
Sequence (P06241 whole entry, looked up): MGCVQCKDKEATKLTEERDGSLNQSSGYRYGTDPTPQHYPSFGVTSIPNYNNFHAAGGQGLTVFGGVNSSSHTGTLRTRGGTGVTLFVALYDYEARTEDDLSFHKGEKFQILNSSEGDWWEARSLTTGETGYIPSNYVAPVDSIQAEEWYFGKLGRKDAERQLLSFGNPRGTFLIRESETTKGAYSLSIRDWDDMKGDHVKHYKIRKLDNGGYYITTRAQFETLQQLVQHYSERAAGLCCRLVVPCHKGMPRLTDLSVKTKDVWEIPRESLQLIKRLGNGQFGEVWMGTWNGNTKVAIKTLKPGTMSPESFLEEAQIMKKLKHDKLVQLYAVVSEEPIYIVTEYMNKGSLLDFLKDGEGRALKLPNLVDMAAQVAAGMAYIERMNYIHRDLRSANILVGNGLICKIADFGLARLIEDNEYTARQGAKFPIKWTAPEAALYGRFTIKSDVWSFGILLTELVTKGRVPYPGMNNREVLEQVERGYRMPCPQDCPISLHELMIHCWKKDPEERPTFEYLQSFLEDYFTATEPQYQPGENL
Test: phosphorylation enrichment, bacterial display (enrichment ratio); higher = better substrate or ligand; peptides without Tyr show the background
I'd be grateful if you could share measured phosphorylation enrichment for these entries.
The answer should be written as a number, with no unit following it.

The recorded phosphorylation enrichment with Fyn (UniProt P06241) for RREWFYEVIIA [BACE1_Y260_V265A_YF] was 0.593

The recorded phosphorylation enrichment with Fyn (UniProt P06241) for KRLAVYIDEEA [EPM2A_Y304_P301L] was 0.601

The recorded phosphorylation enrichment with Fyn (UniProt P06241) for GSERDYTFEEL [EIF2S2_Y174_YF] was 0.453

The recorded phosphorylation enrichment with Fyn (UniProt P06241) for DLLMQHPKAQG [FAM83C_Y600_Y600H] was 0.509

The recorded phosphorylation enrichment with Fyn (UniProt P06241) for KVALVYGQMNE [ATP5F1B_Y269] was 1.47

The recorded phosphorylation enrichment with Fyn (UniProt P06241) for FHLLPYTVRAM [PARS2_Y93_YF] was 0.446

The recorded phosphorylation enrichment with Fyn (UniProt P06241) for ATRDVYNPFET [SCAMP3_Y41_L38R] was 1.08

The recorded phosphorylation enrichment with Fyn (UniProt P06241) for YRAVKYLQMVG [AVPR2_Y117_C112Y] was 0.397

The recorded phosphorylation enrichment with Fyn (UniProt P06241) for VTRLWYPVCFG [ITK_Y336_R335W] was 0.502

The recorded phosphorylation enrichment with Fyn (UniProt P06241) for IENKPYGMSDP [RET_Y1062_L1061P] was 0.41

The recorded phosphorylation enrichment with Fyn (UniProt P06241) for AAGGRYDGLVG [HARS1_Y363] was 0.346

The recorded phosphorylation enrichment with Fyn (UniProt P06241) for PLKFLYPNIDR [STAT1_Y668_K673R_YF] was 0.796

The recorded phosphorylation enrichment with Fyn (UniProt P06241) for KIEGIYARDET [RPL35A_Y34_V33I] was 1.07

The recorded phosphorylation enrichment with Fyn (UniProt P06241) for RGSQQYRALTV [TUBB8_Y281] was 0.325

The recorded phosphorylation enrichment with Fyn (UniProt P06241) for NVTRKYTRQIL [MAP3K2_Y463] was 0.372

The recorded phosphorylation enrichment with Fyn (UniProt P06241) for TSKLSYLDPRI [TOP1_Y723_N722S] was 0.435

The recorded phosphorylation enrichment with Fyn (UniProt P06241) for ADKAAYLQNLN [MYH1_Y389] was 0.645

The recorded phosphorylation enrichment with Fyn (UniProt P06241) for QMVGMYASSYM [AVPR2_Y124] was 1.11

The recorded phosphorylation enrichment with Fyn (UniProt P06241) for SEKIVYGHLDD [ACO2_Y71] was 0.817

The recorded phosphorylation enrichment with Fyn (UniProt P06241) for TPIFPYLLPKS [PLD2_Y580_T577I_YF] was 0.799

====

I'd be grateful if you could share measured SH2 binding enrichment for these entries.
Biological target: c-Src SH2
Assay: SH2 binding enrichment of the phosphorylated peptide, bacterial display (enrichment ratio); higher = better substrate or ligand; peptides without Tyr show the background
The answer should be written as a number, with no unit following it.

The recorded SH2 binding enrichment with c-Src SH2 for HRLSTYTKMLF [CHST8_Y251] was 1.98

The recorded SH2 binding enrichment with c-Src SH2 for KKHIPHREHKS [CSNK1G2_Y206_Y206H] was 1.8

The recorded SH2 binding enrichment with c-Src SH2 for LQEQNYPAVDS [FAM114A1_Y115_L116P] was 0.655

The recorded SH2 binding enrichment with c-Src SH2 for KVITDYFVDMK [MPP4_Y566_YF] was 0.595

The recorded SH2 binding enrichment with c-Src SH2 for DNEALYDICFC [TUBB3_Y208_R213C] was 0.714

The recorded SH2 binding enrichment with c-Src SH2 for KVKSIYFHTQG [AR_Y916_P914S] was 0.568

The recorded SH2 binding enrichment with c-Src SH2 for IITDYYVDMKF [MPP4_Y567_V562I] was 1.11

The recorded SH2 binding enrichment with c-Src SH2 for GGMTEYNLVVV [KRAS_Y4_K5N] was 0.352

The recorded SH2 binding enrichment with c-Src SH2 for AIQDAYMHITS [ADCY10_Y318] was 1.27

====

I'd be grateful if you could share measured SH2 binding enrichment for these entries.
Target: SHP2-C SH2
Assay: SH2 binding enrichment of the phosphorylated peptide, bacterial display (enrichment ratio); higher = better substrate or ligand; peptides without Tyr show the background
The answer should be written as a number, with no unit following it.

The recorded SH2 binding enrichment with SHP2-C SH2 for LQEQNYPAVDS [FAM114A1_Y115_L116P] was 0.508

The recorded SH2 binding enrichment with SHP2-C SH2 for REGAKYVSHGA [ASS1_Y113] was 0.322

The recorded SH2 binding enrichment with SHP2-C SH2 for CEHRGCLFLAI [TEK_Y897_Y897C_YF] was 0.974

The recorded SH2 binding enrichment with SHP2-C SH2 for DLITAYRAHGF [PDHA1_Y118_H113D] was 0.936

The recorded SH2 binding enrichment with SHP2-C SH2 for NPQKSYFIRLY [WAS_Y83] was 0.937

The recorded SH2 binding enrichment with SHP2-C SH2 for KIEGIYARDET [RPL35A_Y34_V33I] was 0.788

The recorded SH2 binding enrichment with SHP2-C SH2 for RQSHNYLGGFA [SYK_Y47_R45H] was 1.13

====

Target: SHP2-C SH2
Experiment: SH2 binding enrichment of the phosphorylated peptide, bacterial display (enrichment ratio); higher = better substrate or ligand; peptides without Tyr show the background
I'd be grateful if you could share measured SH2 binding enrichment for these entries.
The answer should be written as a number, with no unit following it.

TEQMAYCPIQC [SHC4_Y403] has a reported SH2 binding enrichment of 0.643

PNAYIYVVQLP [L1CAM_Y420_A415P] has a reported SH2 binding enrichment of 1.14

CLLHCYFSQIH [MCM3AP_Y873_R878H] has a reported SH2 binding enrichment of 1.53

DEDFLYREELA [POR_Y575_YF] has a reported SH2 binding enrichment of 0.793

TVQVAYYTMMM [SPATA17_Y83] has a reported SH2 binding enrichment of 0.852

ANSPVYVPTTR [GATA6_Y188_S184N] has a reported SH2 binding enrichment of 0.783

EDASEYFENYI [PARP4_Y214] has a reported SH2 binding enrichment of 0.675

AGTIPYHAHLD [ASS1_Y291_L290P] has a reported SH2 binding enrichment of 0.772

HQKKPYCHTHN [NRAP_Y53_A56T] has a reported SH2 binding enrichment of 1.55

TSKLSYLDPRI [TOP1_Y723_N722S] has a reported SH2 binding enrichment of 0.548

KRFRIYHLATS [BRCA2_Y3009_YF] has a reported SH2 binding enrichment of 1.18

SGFESYGSSSY [RPA2_Y9] has a reported SH2 binding enrichment of 0.708

SDFSRYARTSI [TERT_Y949_S948R_YF] has a reported SH2 binding enrichment of 0.901

SVSVNYGDQVQ [GRAP_Y101] has a reported SH2 binding enrichment of 0.651

IENKPYGMSDP [RET_Y1062_L1061P] has a reported SH2 binding enrichment of 0.648

TSPKSCPSQKH [CAP2_Y316_Y316C] has a reported SH2 binding enrichment of 0.967

GDAMLYFPSVS [GPR143_Y177_A173D_YF] has a reported SH2 binding enrichment of 0.632

TEALYYTDDTA [ADPRS_Y75] has a reported SH2 binding enrichment of 0.847

NDPMEYAKQHG [ASS1_Y163_L160P] has a reported SH2 binding enrichment of 0.545

DLVSEYQQFQD [TUBB3_Y422_YF] has a reported SH2 binding enrichment of 0.687

FPRAWCRRSIA [KIAA1109_Y4272_Y4272C] has a reported SH2 binding enrichment of 0.4

NGQAVYAACQT [XDH_Y1092] has a reported SH2 binding enrichment of 0.618

PSDLLYILDIQ [ITGA2B_Y845] has a reported SH2 binding enrichment of 0.492

LSSNLYFRWLT [CNGA3_Y168_P163L_YF] has a reported SH2 binding enrichment of 1.01

HFEDGYPGGSD [CTNND1_Y221_YF] has a reported SH2 binding enrichment of 0.731

TLKDVYDDGKY [RPS6KA3_Y483] has a reported SH2 binding enrichment of 0.737
